- MEASURED_ON: c-Src SH2
- PROCEDURE_SUMMARY: SH2 binding enrichment of the phosphorylated peptide, bacterial display (enrichment ratio); higher = better substrate or ligand; peptides without Tyr show the background;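 further: peptide library displayed on the E. coli surface as eCPX fusions, selected cells deep-sequenced, score is each peptide's frequency after selection divided by its frequency in the input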
READOUT_LABEL: SH2 binding enrichment
Numbers only.

Sample records with SH2 binding enrichment:
SEQUENCE_CHAIN: EPFKVYRIVPE [IRF8_Y110_YF]
MEASURED_ON: c-Src SH2
REPORTED_VALUE: 0.506
//
SEQUENCE_CHAIN: RRERDYTNLPS [CSF1R_Y923]
MEASURED_ON: c-Src SH2
REPORTED_VALUE: 0.486

// recorded SH2 binding enrichment for KPAFSYTSSST [SIM1_Y356] : 0.503

Measured values drawn from the supplement of paper PMC10065799 for this set.
